System: acute liver damage induced by carbon tetrachloride
Assay: protective effect on acute liver damage associated with centrilobular necrosis, carbon tetrachloride model
Type: in vivo, mouse (dd strain)
Details: 250 mg/kg oral 6 h before CCl4; 24 h after CCl4; 0 normal, 2 slightly recognized, 4 clearly observable, 6 heavy damage; average of 5 to 6 mice
Description: Carbon tetrachloride (CCl4) administration induces centrilobular necrosis of the liver associated with loss of diphosphopyridine nucleotide, hepatic glycogen, coenzyme A and increase in neutral fat. […] Methods: The test compounds were dissolved or suspended in olive oil and administered orally at the dose of 250 mg/kg to the mice (Four-week-old male mice-dd strain). […] Activities of p-GPT were determined by the method of Reitman and Frankel and expressed in Karmen units. […]
endpoint.name: Liver Damage Index

>>> measured_number("CCCCOC(=O)C(C(=O)OCCCC)=C1SC=CS1")
0.4
>>> measured_number("COC(=O)C(C(=O)OC)=C1SC=CS1")
0.4
>>> measured_number("CC(C)OC(=O)C(C(=O)OC(C)C)=C1SC=CS1")
0.0
>>> measured_number("CCOC(=O)C(C(=O)OCC)=C1SC=CS1 [Compound 2, Diethyl 1,3-dithiol-2-ylidene malonate]")
0.2
>>> measured_number("CCOC(=O)C(C(=O)OC(C)C)=C1SC=CS1")
0.8

* * *

test: acute oral toxicity to male mice (LD50); settings: mouse, in vivo
endpoint.name: LD50

>>> result("CC(C)OC(=O)C(C(=O)OC(C)C)=C1SC=CS1")
"3120 mg/kg"

* * *

system: acute liver damage induced by carbon tetrachloride; experiment: protective effect on acute liver damage associated with centrilobular necrosis, carbon tetrachloride model; type: in vivo, mouse (dd strain); details: 250 mg/kg oral 6 h before CCl4; 24 h after CCl4; 0 normal, 2 slightly recognized, 4 clearly observable, 6 heavy damage; average of 5 to 6 mice
Catalogue of compounds with associated Liver Damage Index
endpoint.name: Liver Damage Index

>>> measured_number("CCCOC(=O)C(C(=O)OCCC)=C1SC=CS1")
0.1
>>> measured_number("COC(=O)C(C(=O)OCC(C)C)=C1SC=CS1")
0.6
>>> measured_number("CC(C)COC(=O)C(C(=O)OCC(C)C)=C1SC=CS1")
0.4
